# EXPERIMENTAL_TARGET: MDM2-p53 interaction (Homo sapiens (Human))
# Sequence (Q00987 whole entry): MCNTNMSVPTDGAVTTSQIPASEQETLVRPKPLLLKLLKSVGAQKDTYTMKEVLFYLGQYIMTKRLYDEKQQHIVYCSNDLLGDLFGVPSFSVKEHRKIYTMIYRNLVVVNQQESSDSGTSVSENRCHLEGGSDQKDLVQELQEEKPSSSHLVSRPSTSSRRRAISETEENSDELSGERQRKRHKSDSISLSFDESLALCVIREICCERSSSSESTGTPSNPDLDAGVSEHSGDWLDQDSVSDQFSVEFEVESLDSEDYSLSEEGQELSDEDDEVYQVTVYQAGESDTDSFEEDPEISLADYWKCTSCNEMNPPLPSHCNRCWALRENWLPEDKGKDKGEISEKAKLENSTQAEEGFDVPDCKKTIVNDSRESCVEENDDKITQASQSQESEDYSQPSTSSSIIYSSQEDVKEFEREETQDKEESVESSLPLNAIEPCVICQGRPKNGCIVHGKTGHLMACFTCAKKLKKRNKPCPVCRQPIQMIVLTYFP
# TEST_CONDITIONS: read-out: MDM2 % inhibition @0.030
Would you mind telling me the reported inhibition at 0.03 µM of each entry?
In your response, put the unit directly after the numeric value.

Data request: Query: inhibition at 0.03 µM; subject: CCC(O)(c1cc(F)c2c(c1)C(=O)N(Cc1ccc(C#N)cn1)[C@@]2(OC1CC(O)C1)c1ccc(Cl)cc1)[C@H]1CC[C@H](O)CC1 (some centres unmarked) [Example 520]
Data returned: 32%

Data request: Look at this molecule and give its reported inhibition at 0.03 µM. CC[C@](O)(c1cc(F)c2c(c1)C(=O)N(Cc1ncc(C#N)cn1)[C@@]2(O[C@H]1C[C@@H](O)C1)c1ccc(Cl)cc1)C1(F)CCOCC1 [Example 506]
Data returned: 36%

Data request: For the molecule CCC(O)(c1cc(F)c2c(c1)C(=O)N(Cc1ncc(Cl)cn1)[C@@]2(O[C@H]1CCOC1)c1ccc(Cl)cc1)c1cn(C)cn1 (single isomer, unassigned) [Example 474] , what inhibition at 0.03 µM is on record?
Data returned: 38%

Data request: Please report the recorded inhibition at 0.03 µM for Cn1cc(C(O)(c2cc(F)c3c(c2)C(=O)N(Cc2ccc(C#N)cn2)[C@@]3(O[C@H]2CCOC2)c2ccc(Cl)cc2)C(F)(F)F)cn1 (some centres unmarked) [Example 371] .
Data returned: 43%

Data request: Requested field: inhibition at 0.03 µM. Item: CCC(O)(CN1CCNCC1)c1cc(F)c2c(c1)C(=O)N(Cc1ncc(Cl)cn1)[C@@]2(OCC1(F)COC1)c1ccc(Cl)cc1 (single isomer, unassigned) [Example 538]
Data returned: 44%
